- System: 2Sb-muMax20 (muMax20 with two 1,3-bis(methyl)benzene Cys staples, A13C/A17C and Q88C/A92C, C-terminal Lys)
- experiment notes: PBM 8-mer E-score (E-score (rank enrichment, -0.5 to 0.5)); higher = stronger preferential binding
The full ranking holds about 33,000 sequences; the median of “E-score (rank enrichment, -0.5 to 0.5)” is about -0.0028, and the highest 2% start at about 0.23. What follows is part of a selection rich in the highest values, with near analogues and random picks from the rest.
readout label: PBM 8-mer E-score
Could you respond with only the numeric value?

Query (sequence): AAGACGTC ; field requested: PBM 8-mer E-score 0.0152

Query (sequence): ATATTATG ; field requested: PBM 8-mer E-score 0.277

# lookup: PBM 8-mer E-score of GACCAGCA 0.0345

What does the record list as PBM 8-mer E-score for ATGTAATG ? 0.155

Form field: reported PBM 8-mer E-score of CATGTTGC 0.0698

Data request, read-out PBM 8-mer E-score, for CTGTAACA -0.00643

Item CTGTAATA has what recorded PBM 8-mer E-score? 0.0526

Fill in: PBM 8-mer E-score of CGGACTAG is ___ -0.0898

* * *

Give PBM 8-mer E-score for every item shown.
- System: 2Sb-muMax20 (muMax20 with two 1,3-bis(methyl)benzene Cys staples, A13C/A17C and Q88C/A92C, C-terminal Lys)
- experiment notes: PBM 8-mer E-score (E-score (rank enrichment, -0.5 to 0.5)); higher = stronger preferential binding
Whole data set: some 33,000 sequences, median “E-score (rank enrichment, -0.5 to 0.5)” near -0.0028, cut for the highest 2% near 0.23. Many of the other results were omitted from the sample, so the highest values are more common in it than they were.
Format: numeric value only, no unit, no commentary.

Which value of PBM 8-mer E-score has been reported for GCTCCGTA in the records? -0.181

So what does the record say about PBM 8-mer E-score for AATTGCTG ? 0.0578

Using the record for GTTTCTTA , report its PBM 8-mer E-score. 0.0179

Consider the sequence AGACAAAA and give its measured PBM 8-mer E-score. -0.00983

Query: PBM 8-mer E-score; subject: ACGATAGC 0.0621

Request the reported PBM 8-mer E-score associated with ACGCTGAC -0.0415

PBM 8-mer E-score for GCCAAATA ? 0.136

Any idea what its PBM 8-mer E-score is? The sequence is CACAGTAG -0.0155

Could you share which PBM 8-mer E-score value was measured for CGGTATTA ? -0.1

Fill in the blank: the reported PBM 8-mer E-score of CGAAGTCA is ____. -0.106

// returns reported PBM 8-mer E-score for input AACTTCAA 0.00863

PBM 8-mer E-score lookup needed for AAGCAATT , thanks. 0.187

GET /values?readout=PBM 8-mer E-score&item= TCAGCCGA -0.258

Recorded PBM 8-mer E-score of CTGAGTCA , please. -0.163

Entry ATTGGGGA has what PBM 8-mer E-score? 0.244

Which PBM 8-mer E-score value belongs to ACACTGCA ? -0.0884

Quick one: PBM 8-mer E-score for TACAAACA ? -0.0196

Recorded PBM 8-mer E-score for CGTCCGTC , please? -0.11

Data request, read-out PBM 8-mer E-score, for CGGCCCCG -0.0779

What value of PBM 8-mer E-score has been reported for the following sequence? CTGGTGGA -0.184

Returns the measured PBM 8-mer E-score for the input sequence. Input: TACAAATA 0.166

# get_value(readout='PBM 8-mer E-score', item= ATGTAGAG ) 0.0764

Look at this sequence and give its reported PBM 8-mer E-score. CCCCTCCC 0.297

Give the measured PBM 8-mer E-score of ATATTAGG . 0.287

Quick one: PBM 8-mer E-score for AGCACAGA ? 0.00824

Consider the sequence ACGGAGCA and give its measured PBM 8-mer E-score. 0.0531

Given CTTGGGAA , state its recorded PBM 8-mer E-score. -0.0626

Please give the measured PBM 8-mer E-score for this sequence: AACGGCGA -0.0512

Which value of PBM 8-mer E-score has been reported for ATTGGGAA in the records? 0.192

Please give the measured PBM 8-mer E-score for this sequence: ATTGGGGG 0.0136

Could you share which PBM 8-mer E-score value was measured for AAACAAAA ? 0.133

State the recorded PBM 8-mer E-score for this entry: CAGCTCCG -0.19

Request the reported PBM 8-mer E-score associated with ACACTACG 0.0974

Param item = TATGGGGA ; retrieve measured PBM 8-mer E-score. 0.28

Can you share its PBM 8-mer E-score? I mean this sequence: AATGCTAT 0.0731

Need PBM 8-mer E-score, item CTATTAGC 0.0397

Using the record for TGAAGAAA , report its PBM 8-mer E-score. -0.0313

# get_value(readout='PBM 8-mer E-score', item= AACAAGTA ) -0.0361

What measured PBM 8-mer E-score goes with GAGCAATC ? -0.0835

Please give the measured PBM 8-mer E-score for this sequence: ATGATCAG -0.0255

What measured PBM 8-mer E-score goes with GTCAATAA ? 0.075

Given the sequence ATATTAGA , what is its reported PBM 8-mer E-score? 0.245

Please look up its PBM 8-mer E-score: AGCTTCTC 0.245

Requested field: PBM 8-mer E-score. Item: AAGATCTG 0.0847

I am curious: what PBM 8-mer E-score value has been reported for AAGCAATC ? 0.256

Consider the sequence ATTGGGCC and give its measured PBM 8-mer E-score. -0.04

Need PBM 8-mer E-score of GTAGTGAA , thanks. 0.206

Endpoint output: PBM 8-mer E-score of AATAGCAG . Value? -0.0835

Form field: reported PBM 8-mer E-score of ACGATAGG 0.245

// PBM 8-mer E-score lookup, key: ATGTAGTG 0.156

Query: PBM 8-mer E-score; subject: CCAGGTGA -0.197

Bench note: what PBM 8-mer E-score did CAAGCGCC show? -0.226

Can you look up the measured PBM 8-mer E-score of ACTGCGCC for me? -0.18

Reported PBM 8-mer E-score for AGCTTCTG : what is it? -0.127

Which PBM 8-mer E-score value is on record for CAACAGAC ? 0.0401

Name the reported PBM 8-mer E-score value associated with the sequence CAAGAAGA 0.0996

Item under review: AATCTTCC . Reported PBM 8-mer E-score? 0.0406

// lookup PBM 8-mer E-score for ATTGGGTA 0.161

Any idea what its PBM 8-mer E-score is? The sequence is ATATTAGC 0.125

Reported PBM 8-mer E-score, sequence GTTGGGGA : ____ 0.166

For the sequence CGTTGCTA , what PBM 8-mer E-score is on record? 0.237

Item GTGTAGTA has what recorded PBM 8-mer E-score? 0.125

Please give the measured PBM 8-mer E-score for this sequence: AAAACTGC -0.0787

Need PBM 8-mer E-score of CATCCTGG , thanks. -0.145

Find the recorded PBM 8-mer E-score belonging to CCGAGAGC and report it. -0.304

Item ATACGCAA has what recorded PBM 8-mer E-score? 0.303

# lookup: PBM 8-mer E-score of CCGATAGG -0.0782

Could you tell me which PBM 8-mer E-score is on file for CATGGGGA ? 0.172

Sample AAGGTAAG — what was its PBM 8-mer E-score? -0.0254

Using the record for AACAAATA , report its PBM 8-mer E-score. 0.269

Entry TCTCCGCA has what PBM 8-mer E-score? -0.148

Find the recorded PBM 8-mer E-score belonging to AAAGCGCA and report it. 0.0962

I am curious: what PBM 8-mer E-score value has been reported for ACCCTCCT ? -0.0718

Any idea what its PBM 8-mer E-score is? The sequence is CCCAAATA 0.24

Recorded PBM 8-mer E-score of CGTGGAAC , please. -0.0767

Need PBM 8-mer E-score, item CAAGCGCA 0.27

Using the record for ACAGTCAC , report its PBM 8-mer E-score. 0.0067

Could you tell me which PBM 8-mer E-score is on file for TACTTTCA ? 0.0779

Which value of PBM 8-mer E-score has been reported for CCCTCCCC in the records? 0.157

Look up PBM 8-mer E-score for this sequence: TCCCCGAA 0.0276
